Data origin, for the record: patent US11542261B2

SUBJECT_OF_TEST: ABL (Homo sapiens (Human))
EXPERIMENT_DESCRIPTION: KiNativ in situ kinase profiling in MV4:11 cell lysates

[
  {
    "COMPOUND": "COc1cc2ncc(-c3cccc(NC4CCNC4)n3)n2cc1-c1cnn(C)c1 (stereo not shown) [Compound I-24]",
    "IC50": "< 250 nM"
  }
]

---

SUBJECT_OF_TEST: MINK (Homo sapiens (Human))
EXPERIMENT_DESCRIPTION: KiNativ in situ kinase profiling in MV4:11 cell lysates

[
  {
    "COMPOUND": "COc1cc2ncc(-c3cccc(NC4CCNC4)n3)n2cc1-c1cnn(C)c1 (stereo not shown)",
    "IC50": "< 250 nM"
  }
]
